Documented % Blocking across a set of binders
Molecular target: T1, human chemokine (C-C motif) receptor 8 (CCR8) (human, UniProt P51685 1-355)
T1 construct: On human peripheral blood lymphocytes / PBMC (native) or on human CCR8 GFP-transfected Ba/F3 cells; also called hCCR8; human CCR8
T1 sequence (P51685 whole entry): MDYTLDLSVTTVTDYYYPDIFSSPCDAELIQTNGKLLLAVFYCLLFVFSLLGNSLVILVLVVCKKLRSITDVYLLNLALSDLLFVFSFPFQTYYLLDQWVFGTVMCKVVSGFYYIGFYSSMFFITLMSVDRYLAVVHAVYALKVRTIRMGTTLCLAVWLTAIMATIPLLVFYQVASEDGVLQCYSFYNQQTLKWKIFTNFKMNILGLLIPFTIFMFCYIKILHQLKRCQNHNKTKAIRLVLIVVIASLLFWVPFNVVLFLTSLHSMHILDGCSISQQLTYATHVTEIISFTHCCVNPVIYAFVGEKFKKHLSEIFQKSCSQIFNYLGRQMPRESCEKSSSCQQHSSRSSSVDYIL
Test: flow cytometry blocking, PBMC CCR8+ CD4+ cells; competitor PE-AB6 (its MFI is read)
Numeric only. Scale: %

[[record]]
binder = "AB11 (antibody, V domains shown, Hybridoma monoclonal; also called antibody 11; clone 11) VH: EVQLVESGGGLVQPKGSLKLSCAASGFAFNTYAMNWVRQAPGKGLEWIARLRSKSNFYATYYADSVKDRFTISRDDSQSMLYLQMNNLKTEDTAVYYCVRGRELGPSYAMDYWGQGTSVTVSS VL: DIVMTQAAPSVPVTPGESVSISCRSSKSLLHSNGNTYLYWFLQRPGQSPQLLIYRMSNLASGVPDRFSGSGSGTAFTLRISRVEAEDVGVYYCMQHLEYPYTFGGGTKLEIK"
datavalue = -36.2

[[record]]
binder = "AB15 (antibody, V domains shown, Hybridoma monoclonal; also called antibody 15; clone 15) VH: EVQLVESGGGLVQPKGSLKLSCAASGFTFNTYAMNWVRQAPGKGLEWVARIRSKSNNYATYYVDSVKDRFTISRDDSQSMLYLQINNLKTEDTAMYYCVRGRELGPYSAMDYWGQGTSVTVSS VL: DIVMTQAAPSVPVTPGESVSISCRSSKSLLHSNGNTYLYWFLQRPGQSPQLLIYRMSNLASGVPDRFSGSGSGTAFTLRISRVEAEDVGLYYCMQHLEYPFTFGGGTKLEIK"
datavalue = -35.7

[[record]]
binder = "AB14 (antibody, V domains shown, Hybridoma monoclonal; also called antibody 14; clone 14) VH: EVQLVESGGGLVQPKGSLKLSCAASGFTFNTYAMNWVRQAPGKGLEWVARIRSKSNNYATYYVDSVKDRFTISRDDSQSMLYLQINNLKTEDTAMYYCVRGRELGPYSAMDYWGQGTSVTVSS VL: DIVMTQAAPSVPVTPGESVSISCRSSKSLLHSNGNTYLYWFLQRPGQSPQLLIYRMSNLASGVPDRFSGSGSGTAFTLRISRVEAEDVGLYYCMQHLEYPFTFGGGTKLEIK"
datavalue = -23.3

[[record]]
binder = "AB13 (antibody, V domains shown, Hybridoma monoclonal; also called antibody 13; clone 13) VH: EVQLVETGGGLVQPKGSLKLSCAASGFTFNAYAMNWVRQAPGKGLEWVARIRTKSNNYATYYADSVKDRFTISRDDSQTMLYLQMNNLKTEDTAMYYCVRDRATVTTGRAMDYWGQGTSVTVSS VL: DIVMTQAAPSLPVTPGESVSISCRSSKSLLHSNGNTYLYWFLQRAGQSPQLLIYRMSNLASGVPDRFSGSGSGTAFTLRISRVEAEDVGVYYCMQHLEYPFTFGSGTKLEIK"
datavalue = -30.7


Shift focus to the following entry.
Asked: Would you kindly share the measured % Blocking for AB3 (antibody, V domains shown, Hybridoma monoclonal; also called antibody 3; clone 3) VH: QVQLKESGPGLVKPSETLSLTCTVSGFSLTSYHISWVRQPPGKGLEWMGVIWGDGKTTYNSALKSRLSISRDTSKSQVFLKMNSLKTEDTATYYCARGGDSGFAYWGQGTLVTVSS VL: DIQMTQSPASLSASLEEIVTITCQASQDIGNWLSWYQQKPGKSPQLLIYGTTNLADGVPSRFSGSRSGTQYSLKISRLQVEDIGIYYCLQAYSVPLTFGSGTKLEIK ?
Given back: 45.5
